- study system: T1, human PD-1 expressed on cells (human, UniProt Q15116 25-288)
- T1 construct: whole, on cells
- T1 sequence (Q15116 25-288): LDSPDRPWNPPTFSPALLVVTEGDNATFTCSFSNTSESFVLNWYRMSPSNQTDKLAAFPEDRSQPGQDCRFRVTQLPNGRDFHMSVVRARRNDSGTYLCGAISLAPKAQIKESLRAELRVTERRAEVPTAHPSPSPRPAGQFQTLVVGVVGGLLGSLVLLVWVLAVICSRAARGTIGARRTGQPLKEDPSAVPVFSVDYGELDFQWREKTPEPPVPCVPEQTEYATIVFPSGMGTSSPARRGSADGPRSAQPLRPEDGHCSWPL
- run description: flow cytometry, SEB-activated PBMC donor one
pEC50: −log10 of the molar value.

- binder: "24H9 (antibody, human IgG1, V domains shown) VH: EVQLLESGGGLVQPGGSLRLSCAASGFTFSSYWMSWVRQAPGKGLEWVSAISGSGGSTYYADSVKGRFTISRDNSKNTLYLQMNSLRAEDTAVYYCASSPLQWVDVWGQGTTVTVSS VL: DIQMTQSPSSLSASVGDRVTITCRASQGISSWLAWYQQKPGKAPKLLIYSASSLQSGVPSRFSGSGSGTDFTLTISSLQPEDFATYYCQQANSFPFTFGPGTKVDIK"
  pEC50: 8.86
- binder: "19B6 (antibody, V domains shown) VH: QVQLVQSGAEVKKPGASVKVSCKASGYTFTGYYMHWVRQAPGQGLEWMGIINPSGGSTSYAQKFQGRVTMTRDTSTSTVYMELSSLRSEDTAVYYCAKTAGYDWLPSGLGMDVWGQGTTVTVSS VL: DIQMTQSPSSLSASVGDRVTITCRASQSINSWLAWYQQKPGKAPKLLIYYASSLQSGVPSRFSGSGSGTDFTLTISSLQPEDFATYYCQQGYSVPLSFGQGTKLEIK"
  pEC50: 7.87
